Test system: cancer cells
Test: MTT cytotoxic assay of esterification products (Cytotoxicity activity)
Assay type: cell-based, human
Details: esterification products isolated with HPLC; graded strong / moderate / weak
attribute measured: Cytotoxicity activity

1) CC=C(C)C(=O)OCC1(C)C(O)CCC2(C)C1CCC1(C)C2CC=C2C3CC(C)(C)C(O)C(OC(=O)C=Cc4ccccc4)C3(COC(=O)C=Cc3ccccc3)C(O)CC21C (stereo not drawn) [Tig—Cin—3]; moderate
2) CC=C(C)C(=O)OCC1(C)C(O)CCC2(C)C1CCC1(C)C2CC=C2C3CC(C)(C)C(OC(=O)CCCCC)C(O)C3(COC(=O)C(C)=CC)C(O)CC21C (stereo not drawn) [Tig—R—Hex—2]; moderate
3) CC=CC(=O)OC1CCC2(C)C(CCC3(C)C2CC=C2C4CC(C)(C)C(O)C(OC(=O)C=CC)C4(COC(=O)C(C)=CC)C(O)CC23C)C1(C)COC(=O)C(C)=CC (stereo not drawn) [Tig—R—Cro—6]; weak

Values compiled from patent US20230340012A1.
